Listed here are compounds together with their documented Einf.
test system: Mycobacterium tuberculosis Erdman (autoluminescent); test: Einf, fitted maximum growth inhibition of three-drug combination (fraction); higher = stronger maximal inhibition; details: in vitro model: cholesterol-high 0.2 mM; time point: terminal (~4-5 doublings, model-specific)
endpoint: Einf

compound | endpoint | reported-measurement
CC[C@@H](CO)NCCN[C@@H](CC)CO [ethambutol] + CO[C@H]1/C=C/O[C@@]2(C)Oc3c(C)c(O)c4c(O)c(c(/C=N/N5CCN(C6CCCC6)CC5)c(O)c4c3C2=O)NC(=O)/C(C)=C\C=C\[C@H](C)[C@H](O)[C@@H](C)[C@@H](O)[C@@H](C)[C@H](OC(C)=O)[C@@H]1C [rifapentine] + CO[C@H]1/C=C/O[C@@]2(C)Oc3c(C)c(O)c4c(O)c(c(/C=N/N5CCN(C)CC5)c(O)c4c3C2=O)NC(=O)/C(C)=C\C=C\[C@H](C)[C@H](O)[C@@H](C)[C@@H](O)[C@@H](C)[C@H](OC(C)=O)[C@@H]1C [rifampicin] | Einf | 1
CC(C)/N=c1\cc2n(-c3ccc(Cl)cc3)c3ccccc3nc-2cc1Nc1ccc(Cl)cc1 [clofazimine] + NNC(=O)c1ccncc1 [isoniazid] + CC(=O)NC[C@H]1CN(c2ccc(N3CCOCC3)c(F)c2)C(=O)O1 [linezolid] | Einf | 1
CC[C@@H](CO)NCCN[C@@H](CC)CO [ethambutol] + NC(=O)c1cnccn1 [pyrazinamide] + CO[C@H]1/C=C/O[C@@]2(C)Oc3c(C)c(O)c4c(O)c(c(/C=N/N5CCN(C6CCCC6)CC5)c(O)c4c3C2=O)NC(=O)/C(C)=C\C=C\[C@H](C)[C@H](O)[C@@H](C)[C@@H](O)[C@@H](C)[C@H](OC(C)=O)[C@@H]1C [rifapentine] | Einf | 0.999
